biological target: human orexin 1 receptor (Homo sapiens); assay: Human orexin 1 receptor radioligand binding; conditions: human orexin 1 receptor radioligand binding; averages of 2-20 runs; read-out: hOX1 Ki
Recorded metric: pKi
Give bare numbers, as −log10 of the molar value.

Please go through the list and note pKi for each compound.
1. C[C@H]1[C@H](Oc2cnc(C(F)(F)F)cn2)CCCN1C(=O)c1ccccc1-n1nccn1
2. Cc1cnc(-c2ncccn2)c(C(=O)N2CCC[C@@H](Oc3ccc(Cl)cn3)[C@@H]2C)c1
3. C[C@H]1[C@H](Oc2ccc(C(F)(F)F)cn2)CCCN1C(=O)c1ccc(F)cc1-n1nccn1
4. C[C@H]1[C@H](Oc2ncc(Cl)cn2)CCCN1C(=O)c1cccc(F)c1-n1nccn1
5. C[C@H]1[C@H](Oc2ccc(C(F)(F)F)cn2)CCCN1C(=O)c1ccccc1-c1ncccn1
6. C[C@H]1[C@H](Oc2ncc(C(F)(F)F)cn2)CCCN1C(=O)c1cc(F)ccc1-c1ncco1

Output:
7.35
6.81
7.51
6.40
7.82
6.73

====

biological target: UniProt O43613; test: Human orexin 1 receptor radioligand binding; conditions: human orexin 1 receptor radioligand binding; averages of 2-20 runs; read-out: hOX1 Ki
Recorded metric: Ki (nM)
Numbers only, in nM.

# example entries with known answers
| Molecule | Result |
| --- | --- |
| CCOc1ccc(C)nc1C(=O)N1CCC[C@@H](Oc2ccc(C(F)(F)F)cn2)[C@@H]1C [Example 219] | 55 |
| C[C@H]1[C@H](Oc2ncc(C(F)(F)F)cc2F)CCCN1C(=O)c1ccc(F)cc1-c1ncccn1 [Example 222] | 91 |
| Cc1ccc(C(=O)N2CCC[C@@H](Oc3ccc(C(F)(F)F)cn3)[C@@H]2C)c(-n2nccn2)n1 [Example 150] | 39 |
| Cc1ccc(C(=O)N2CCC[C@@H](N(C)c3ccc(C(F)(F)F)cn3)[C@@H]2C)c(-n2nccn2)n1 (relative stereo) [Example 188] | 100 |
| Cc1ccc(-n2nccn2)c(C(=O)N2CCC[C@@H](Oc3ccc(Cl)cn3)[C@@H]2C)n1 [Example 215] | 35 |

Required: Ki, one value per molecule below.
1. C[C@H]1[C@H](Oc2cnc(C(F)(F)F)cn2)CCCN1C(=O)c1ccccc1-c1ncc(F)cn1 [Example 166]
2. C[C@H]1[C@H](Oc2ncc(C(F)(F)F)cc2F)CCCN1C(=O)c1cc(F)ccc1-c1ncccn1 [Example 221]
3. C[C@H]1[C@H](Oc2ncc(C(F)(F)F)cn2)CCCN1C(=O)c1ccccc1-c1ncccn1 [Example 169]
4. Cc1cccc(C(=O)N2CCC[C@@H](Oc3ccc(C(F)(F)F)cn3)[C@@H]2C)c1-n1nccn1 [Example 152]

Output:
1. 124
2. 44
3. 23
4. 20

====

Reported values: Ki for human orexin 2 receptor (Homo sapiens (Human), UniProt O43614), one per item.

In the examples that follow, each entry is paired with its recorded Ki.
| Compound | Tested system | Ki |
| --- | --- | --- |
| Cc1ccc(C(=O)N2CCC[C@@H](Oc3ccc(C(F)(F)F)cn3)[C@@H]2C)c(-n2nccn2)n1 [Example 150] | human orexin 2 receptor (Homo sapiens (Human), UniProt O43614) | > 10 µM |
| C[C@H]1[C@H](Oc2ccc(C(F)(F)F)cn2)CCCN1C(=O)c1cccnc1-n1nccn1 [Example 153] | human orexin 2 receptor (Homo sapiens (Human), UniProt O43614) | > 10 µM |

--- query ---
Task: Ki lookup needed for COc1ccc(C(=O)N2CCC[C@@H](Oc3ncc(C(F)(F)F)cn3)[C@@H]2C)c(-n2nccn2)c1 [Example 174] , thanks.
Output: > 10 µM
